Listed below: IC50 values for each entry.
Molecular target: recombinant h (human) furin (Homo sapiens, UniProt P09958)
Construct: pure soluble recombinant h (human) furin; purchased New England Biolabs
Sequence (P09958 108-715 limits assumed): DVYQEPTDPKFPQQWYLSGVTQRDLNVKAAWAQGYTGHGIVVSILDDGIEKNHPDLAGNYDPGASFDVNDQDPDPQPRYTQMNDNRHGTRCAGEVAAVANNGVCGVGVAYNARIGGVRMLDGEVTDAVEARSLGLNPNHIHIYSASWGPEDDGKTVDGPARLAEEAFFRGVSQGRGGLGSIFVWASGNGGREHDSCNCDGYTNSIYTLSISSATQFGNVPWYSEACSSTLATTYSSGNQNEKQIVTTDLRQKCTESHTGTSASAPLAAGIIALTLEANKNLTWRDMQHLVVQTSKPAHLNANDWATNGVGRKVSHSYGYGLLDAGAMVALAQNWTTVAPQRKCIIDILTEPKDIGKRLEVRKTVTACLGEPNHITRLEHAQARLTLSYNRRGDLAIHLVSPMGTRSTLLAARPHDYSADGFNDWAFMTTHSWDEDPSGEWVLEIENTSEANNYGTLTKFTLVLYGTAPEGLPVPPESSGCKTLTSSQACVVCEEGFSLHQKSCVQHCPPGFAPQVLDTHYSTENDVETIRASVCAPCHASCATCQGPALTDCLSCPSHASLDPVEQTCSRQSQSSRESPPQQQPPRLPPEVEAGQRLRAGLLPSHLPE
Experiment: In vitro furin assay with Boc-RVRR-MCA (50 µM), aromatic enediyne compounds
Format: biochemical

C1#Cc2ccccc2C#CCN(Cc2ccccc2)CCN(Cc2ccccc2)CC#Cc2ccccc2C#CCN(Cc2ccccc2)CCN(Cc2ccccc2)C1 [AB-6]
192 µM

Now look at this entry.
// IC50 lookup, key: C1#Cc2ccccc2C#CCN(Cc2ccccc2)CCN(Cc2ccccc2)C1 [AB-2] 10.5 µM

Reference for the values: paper PMC2778948
